- Test system: P. aeruginosa ATCC 27853
- Test Parameters: ATCC 27853, in vivo, iv, 4 mg/kg, 6 h
Where a name gives a salt, the structure may show the parent alone. Bridge positions count the residues as written; N and C are the ends. Square brackets hold non-standard residues; d marks the D form. Peptide text beside a SMILES is read from it. * marks the point of attachment. ξ: configuration not given here. X6 = N[C@@H](CC(=O)*)c1ccc2ccccc2c1; Thr(3ξ) = CC(O)[C@H](N)C(=O)O; X10 = NC1(CC(=O)*)CCCCC1; Dab = NCC[C@H](N)C(=O)O
Documented Log reduction from vehicle (CFU/g) across a set of molecules

# Molecule, Log reduction from vehicle (CFU/g) (log CFU/g)
records = [
    ("CC(C)C[C@@H]1NC(=O)[C@@H](Cc2ccccc2)NC(=O)[C@H](CCN)NC(=O)[C@@H](NC(=O)[C@H](CCN)NC(=O)[C@@H](NC(=O)CC2(N)CCCCC2)C(C)O)CCNC(=O)[C@H](C(C)O)NC(=O)[C@H](CCN)NC(=O)[C@H](CCN)NC1=O (stereo partly drawn) [Example 42, TFA salt] (X10-[Thr(3ξ)][Dab][Dab][Dab][dF]L[Dab][Dab][Thr(3ξ)]; lactam 3-C)", "−0.28"),
    ("CC(C)C[C@@H]1NC(=O)[C@@H](Cc2ccccc2)NC(=O)[C@H](CCN)NC(=O)[C@@H](NC(=O)[C@H](CCN)NC(=O)[C@@H](NC(=O)C[C@H](N)c2ccc3ccccc3c2)C(C)O)CCNC(=O)[C@H](C(C)O)NC(=O)[C@H](CCN)NC(=O)[C@H](CCN)NC1=O (stereo partly drawn) [Example 38, trifluoroacetate salt] (X6-[Thr(3ξ)][Dab][Dab][Dab][dF]L[Dab][Dab][Thr(3ξ)]; lactam 3-C)", 4.94),
    ("CC(C)C[C@@H]1NC(=O)[C@@H](Cc2ccccc2)NC(=O)[C@H](CCN)NC(=O)[C@@H](NC(=O)[C@H](CCN)NC(=O)[C@@H](NC(=O)C(O)C2CCCCC2)C(C)O)CCNC(=O)[C@H](C(C)O)NC(=O)[C@H](CCN)NC(=O)[C@H](CCN)NC1=O (mixture of isomers)", "−0.58"),
]

Ref: patent US10407467B2
